# systemName: GST tagged LXRbeta LBD (ligand binding domain) (Homo sapiens, UniProt P55055)
# method: LanthaScreen TR-FRET Liver X Receptor Coactivator Assay, LXR beta-LBD
# experimentalParameters: Inflection Point (potency), co-activator recruitment, relative to reference T0901317; read-out: LXR beta IP
pEC50: −log10 of the molar value.
Reported values of pEC50 for individual entries

compound	pEC50
COC(=O)C1CN(C(=O)c2ccc(N3CCC(C4CCN(C(=O)[C@](O)(c5ccccc5)C(F)(F)F)CC4)CC3)cc2Cl)C1 [Example E-32]	6.84
O=C(c1ccc(N2CCC(C3CCN(C(=O)[C@](O)(c4ccccc4)C(F)(F)F)CC3)CC2)cc1Cl)N1CCCC1C(F)(F)F (some centres unmarked) [Example E-21]	7.02
CCN(CC)C(=O)c1ccc(N2CCC(C3CCN(C(=O)C(O)(C(C)C)C(F)(F)F)CC3)CC2)cc1Cl (centres unmarked) [Example E-9]	7.52
CC(C)C(O)(C(=O)N1CCC(C2CCN(c3ccc(C(=O)N(C)C)c(Cl)n3)CC2)CC1)C1CC1 (centres unmarked) [Example B-3]	6.49
CC(C)C(O)(C(=O)N1CCC(C2CCN(c3ccc(C(=O)N(C)C)c(Cl)c3)CC2)CC1)C(F)(F)C(F)(F)F (centres unmarked) [Example A-26]	6.95
COCCCN(C)C(=O)c1ccc(N2CCC(C3CCN(C(=O)[C@](O)(c4ccccc4)C(F)(F)F)CC3)CC2)cc1Cl [Example E-48]	6.76
COc1cccc(C(O)(C(=O)N2CCC(C3CCN(c4ccc(C(=O)N(C)C)c(Cl)c4)CC3)CC2)C(F)(F)C(F)(F)F)c1 (centres unmarked) [Example A-81]	6.55
CC(C)C(O)(C(=O)N1CCC(C2CCN(c3ccc(C(=O)N(C)C)c(Cl)n3)CC2)CC1)C(F)(F)F (stereo in doubt) [Example B-6]	7.42
CN(CC1CC1(C)C)C(=O)c1ccc(N2CCC(C3CCN(C(=O)c4c(F)cccc4F)CC3)CC2)cc1Cl (centres unmarked) [Example E-15]	6.55
CN(C)C(=O)c1ccc(N2CCC(C3CCN(C(=O)C(O)(c4ccccc4F)C(F)(F)F)CC3)CC2)cc1Cl (centres unmarked) [Example A-96]	6.88
CN(Cc1noc(C2CC2)n1)C(=O)c1ccc(N2CCC(C3CCN(C(=O)[C@](O)(c4ccccc4)C(F)(F)F)CC3)CC2)cc1Cl [Example E-54]	7.46
CN(C)C(=O)c1ccc(N2CCC(C3CCN(C(=O)C(O)(c4cccc(F)c4)C(F)(F)F)CC3)CC2)cc1Cl (centres unmarked) [Example A-95]	7.08
CN(C)C(=O)c1ccc(N2CCC(C3CCN(C(=O)C4(c5cccc(F)c5)CCC4)CC3)CC2)cc1Cl [Example A-17]	6.69
CN(C)C(=O)c1ccc(N2CCC(C3CCN(C(=O)C(F)(F)c4cccc(F)c4)CC3)CC2)cc1Cl [Example A-69]	7.07
CC(C)C(O)(C(=O)N1CCC(C2CCN(c3ccc(C(=O)N4CCCC4)c(Cl)c3)CC2)CC1)C(F)(F)F (centres unmarked) [Example E-7]	6.97
O=C(c1ccc(N2CCC(C3CCN(C(=O)[C@](O)(c4ccccc4)C(F)(F)F)CC3)CC2)cc1Cl)N1CC[C@H](F)C1 [Example E-26]	6.55
CN(C)C(=O)c1ccc(N2CCC(C3CCN(C(=O)c4c(Cl)cccc4Cl)CC3)CC2)nc1Cl [Example B-10]	6.79
CN(C)C(=O)c1ccc(N2CCC(C3CCN(C(=O)C(O)(c4cccc(Cl)c4)C(F)(F)F)CC3)CC2)cc1Cl (centres unmarked) [Example A-50]	7.03
CCN(CC)C(=O)c1ccc(N2CCC(C3CCN(C(=O)c4c(F)cccc4F)CC3)CC2)cc1Cl [Example E-14]	6.54
O=C(c1ccc(N2CCC(C3CCN(C(=O)[C@@](O)(c4ccccc4)C(F)(F)F)CC3)CC2)cc1Cl)N1CCCC1 (single isomer, unassigned) [Example E-19]	6.55

----------
# systemName: GST tagged LXRalpha LBD (ligand binding domain) (Homo sapiens)
# Construct: purchased Invitrogen pv4655
# Sequence (Q13133 209-447 limits assumed): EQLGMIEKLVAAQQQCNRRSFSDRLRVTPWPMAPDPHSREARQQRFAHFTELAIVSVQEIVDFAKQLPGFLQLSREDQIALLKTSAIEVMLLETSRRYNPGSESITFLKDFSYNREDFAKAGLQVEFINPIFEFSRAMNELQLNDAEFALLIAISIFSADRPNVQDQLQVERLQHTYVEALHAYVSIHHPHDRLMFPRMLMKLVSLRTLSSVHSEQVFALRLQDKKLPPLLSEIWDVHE
# method: LanthaScreen TR-FRET Liver X Receptor Coactivator Assay, LXR alpha-LBD
# Assay type: biochemical
# experimentalParameters: activity at max dose (efficacy), relative to reference T0901317; read-out: LXR alpha act @ max dose (%)
reportedMetric: Emax (%)

> print(dat)
                                   compound  reportedmetric  recordedmeasurement
1  O=C(c1ccc(N2CCC(C3CCN(C(=O)[C@](O)(c4ccccc4)C(F)(F)F)CC3)CC2)cc1Cl)N1CC(O)C1 [Example E-36]            Emax                   23
2  CN(C)C(=O)c1ccc(N2CCC(C3CCN(C(=O)C(C)(C)c4ccc(Cl)cc4Cl)CC3)CC2)cc1Cl [Example A-60]            Emax                   32
3  CN(Cc1ccno1)C(=O)c1ccc(N2CCC(C3CCN(C(=O)[C@](O)(c4ccccc4)C(F)(F)F)CC3)CC2)cc1Cl [Example E-50]            Emax                   31

----------
# systemName: GST tagged LXRalpha LBD (ligand binding domain) (Homo sapiens)
# Construct: purchased Invitrogen pv4655
# method: LanthaScreen TR-FRET Liver X Receptor Coactivator Assay, LXR alpha-LBD
# Format: biochemical
# experimentalParameters: activity at max dose (efficacy), relative to reference T0901317; read-out: LXR alpha act @ max dose (%)
# Excerpt: […]
Classification field: enter Condition met for Emax values not below 60%, Condition not met for values below it.

> print(dat)
                                   compound         labelvalue
1  CC(C)(C(=O)N1CCC(C2CCN(c3cccc(S(C)(=O)=O)c3)CC2)CC1)c1ccccc1      Condition met
2  CN(C)C(=O)c1ccc(N2CCC(C3CCN(C(=O)C(C)(C)c4ccccc4Cl)CC3)CC2)cc1Cl      Condition met
3  O=C(c1ccc(N2CCC(C3CCN(C(=O)[C@](O)(c4ccccc4)C(F)(F)F)CC3)CC2)cc1Cl)N1CC[C@H](F)C1  Condition not met
4  O=C(c1ccc(N2CCC(C3CCN(C(=O)[C@](O)(c4ccccc4)C(F)(F)F)CC3)CC2)cc1Cl)N1CC(N2CCCC2)C1  Condition not met
5  CC(C)CC(O)(C(=O)N1CCC(C2CCN(c3ccc(C(=O)N(C)C)c(Cl)c3)CC2)CC1)C(F)(F)F (stereo not shown)  Condition not met
6  CC(C)C(O)(C(=O)N1CCC(C2CCN(c3ccc(C(=O)N(C)C)c(Cl)c3)CC2)CC1)C(C)C  Condition not met
7  CN(C)C(=O)c1ccc(N2CCC(C3CCN(C(=O)C4(c5c(F)cccc5Cl)CCCC4)CC3)CC2)cc1Cl  Condition not met

----------
# systemName: GST tagged LXRbeta LBD (ligand binding domain) (Homo sapiens, UniProt P55055)
# Construct: purchased Invitrogen pv4658.pps
# Sequence (P55055 222-460 limits assumed): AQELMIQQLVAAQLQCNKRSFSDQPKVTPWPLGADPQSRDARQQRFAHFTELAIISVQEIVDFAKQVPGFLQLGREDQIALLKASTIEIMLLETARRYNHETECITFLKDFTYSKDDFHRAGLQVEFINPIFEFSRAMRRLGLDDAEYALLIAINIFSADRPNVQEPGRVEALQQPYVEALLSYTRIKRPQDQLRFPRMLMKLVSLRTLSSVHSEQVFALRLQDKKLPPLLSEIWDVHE
# method: LanthaScreen TR-FRET Liver X Receptor Coactivator Assay, LXR beta-LBD
# Assay type: biochemical
# experimentalParameters: activity at max dose (efficacy), relative to reference T0901317; read-out: LXR beta act @ max dose (%)
Param threshold (70%) applies to Emax; output YES when value >= threshold, NO when value < threshold.

compound	labelValue
CN(C)C(=O)c1ccc(N2CCC(C3CCN(C(=O)[C@](O)(c4ccccc4)C(F)(F)C(F)(F)F)CC3)CC2)nc1Cl (single isomer, unassigned) [Example B-16]	YES
CN(C)S(=O)(=O)c1ccc(N2CCC(C3CCN(C(=O)[C@](O)(c4ccccc4)C(F)(F)F)CC3)CC2)cc1Cl [Example D-4]	YES
CC(C)S(=O)(=O)c1ccc(N2CCC(C3CCN(C(=O)[C@](O)(c4ccccc4)C(F)(F)F)CC3)CC2)cc1Cl [Example D-5]	YES
CC(C)N(C(=O)c1ccc(N2CCC(C3CCN(C(=O)C(O)(C(C)C)C(F)(F)F)CC3)CC2)cc1Cl)C(C)C (stereo not drawn) [Example E-11]	NO
CN(C)C(=O)c1ccc(N2CCC(C3CCN(C(=O)C(F)(F)c4ccccc4)CC3)CC2)cc1Cl [Example A-64]	YES
O=C(c1ccc(N2CCC(C3CCN(C(=O)[C@](O)(c4ccccc4)C(F)(F)F)CC3)CC2)cc1Cl)N1CC[C@H](F)C1 [Example E-26]	YES
CC(C)C(O)(C(=O)N1CCC(C2CCN(c3ccc(C(=O)N(C)C)c(Cl)n3)CC2)CC1)C(C)C [Example B-2]	YES
CN(C)C(=O)c1c(Cl)cc(N2CCC(C3CCN(C(=O)c4c(F)cccc4F)CC3)CC2)cc1Cl [Example A-32]	YES
CC(c1ccon1)N(C)C(=O)c1ccc(N2CCC(C3CCN(C(=O)[C@](O)(c4ccccc4)C(F)(F)F)CC3)CC2)cc1Cl (stereo partly drawn) [Example E-51]	NO
C=CCC(O)(C(=O)N1CCC(C2CCN(c3ccc(C(=O)N(C)C)c(Cl)c3)CC2)CC1)C(F)(F)F (stereo not drawn) [Example A-57]	YES
Cc1ccccc1S(=O)(=O)N1CCC(C2CCN(c3ccc(C(=O)N(C)C)c(Cl)c3)CC2)CC1 [Example A-100]	YES
Cc1ccc(C2(C(=O)N3CCC(C4CCN(c5ccc(C(=O)N(C)C)c(Cl)c5)CC4)CC3)CCC2)cc1 [Example A-72]	YES
O=C(c1c(F)cccc1F)N1CCC(C2CCN(c3ccc(C(=O)N4CCCC4C(F)(F)F)c(Cl)c3)CC2)CC1 (stereo not drawn) [Example E-13]	NO
CN(C)C(=O)c1ccc(N2CCC(C3CCN(C(=O)C(C)(C)c4ccc(O)cc4)CC3)CC2)cc1Cl [Example A-58]	YES
O=C(c1ccc(N2CCC(C3CCN(C(=O)[C@](O)(c4ccccc4)C(F)(F)F)CC3)CC2)cc1Cl)N1CC(N2CCCCC2)C1 [Example E-44]	NO
